# POT values compiled below
Molecular target: GABA-A receptor; anion channel (Bos taurus) (UniProt P10063+P08220+P20237+P08219+P10064+P22300)
Assay: Concentration required to potentiate GABA-evoked currents in voltage-clamped bovine chromaffin cells by 300%
Assay type: functional
RECORDED_METRIC: POT (nM)

SMILES_REPRESENTATION	UNIT_TAG	ASSAY_VALUE
CC[C@@H]1CN([C@H]2C[C@@]3(C)[C@@H](CC[C@H]4[C@@H]5CC[C@H](C(C)=O)[C@@]5(C)CC(=O)[C@@H]43)C[C@@H]2O)CCO1	nM	910
CC(=O)[C@H]1CC[C@H]2[C@@H]3CC[C@H]4C[C@H](O)[C@@H](N5CCOCC5)C[C@]4(C)[C@H]3CC[C@]12C	nM	215
CC(C)c1cccc(C(C)C)c1O	nM	2000
CC1(C)CN([C@H]2C[C@@]3(C)[C@@H](CC[C@@H]4[C@@H]3CC[C@]3(C)[C@@H](C(=O)CO)CC[C@@H]43)C[C@@H]2O)CCO1	nM	310

FYI, the data here is from ChEMBL document CHEMBL1130383.
